# Assay Details: Cytotoxicity against mouse NIH/3T3 cells incubated for 24 hrs by MTT assay
# Test Conditions: NIH/3T3 cells
Endpoint Name: IC50 at 24 h (µg/mL)
Just the number in µg/mL, nothing appended.

Ask: Please give the documented IC50 at 24 h of O=[N+]([O-])c1cccc(/C=N/NCCCCc2nnnn2-c2ccccc2)c1
Result: 51.7

Ask: Quick one: give measured IC50 at 24 h for O=[N+]([O-])c1ccccc1/C=N/NCCCCc1nnnn1-c1ccccc1
Result: 55

* * *

# Tested on: Rattus norvegicus
# Assay Details: Anticonvulsant activity in po dosed MES induced Albino rat seizure model measured after 4 hrs
# Assay type: functional
Endpoint Name: ED50 (mg/kg)
Reply numerically in mg/kg, unit not repeated.

Ask: Supply reported ED50 belonging to this compound: Cc1ccccc1-n1c(C)nc2c(OCc3nnn(S(=O)(=O)c4ccc(N)cc4)n3)cccc2c1=O
Result: 4.93

Ask: Tell me measured ED50 for Cc1ccccc1-n1c(C)nc2c(OCc3nnn(Cc4ccc(-c5ccncc5)cc4)n3)cccc2c1=O please.
Result: 12.9

Ask: Fill in ED50 for record O=C1NC(=O)C(c2ccccc2)(c2ccccc2)N1
Result: 28.1

Ask: Give recorded ED50. Cc1ccccc1-n1c(C)nc2c(OCc3nnn(C(=O)c4ccc(N)cc4)n3)cccc2c1=O
Result: 10.9

Just for reference, ChEMBL document CHEMBL5512656 is where these values come from.
